Catalogue of IC50 values
molecular target: recombinant human Lp-PLA2 (Homo sapiens, UniProt Q13093); experiment: Recombinant human Lp-PLA2 assay (rhLp-PLA2, PED6 assay); type: biochemical; conditions: text thresholds; upper limit for pIC50 in this assay is 9.3; read-out: pIC50 values in the PED6 assay (converted)
Sequence (Q13093 22-441): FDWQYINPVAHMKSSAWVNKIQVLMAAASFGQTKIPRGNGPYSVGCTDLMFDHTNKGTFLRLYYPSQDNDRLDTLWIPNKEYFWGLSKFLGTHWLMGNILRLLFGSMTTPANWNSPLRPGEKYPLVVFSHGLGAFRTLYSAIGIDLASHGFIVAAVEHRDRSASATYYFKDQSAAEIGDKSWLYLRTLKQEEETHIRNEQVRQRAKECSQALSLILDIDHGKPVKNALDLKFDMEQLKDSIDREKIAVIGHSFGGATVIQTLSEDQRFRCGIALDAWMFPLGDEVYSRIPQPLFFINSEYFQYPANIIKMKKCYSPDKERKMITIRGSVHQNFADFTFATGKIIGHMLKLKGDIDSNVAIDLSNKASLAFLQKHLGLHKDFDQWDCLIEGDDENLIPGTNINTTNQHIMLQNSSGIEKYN

compound	IC50
COc1ncc(Cc2c[nH]c(OCCc3ccc(Oc4c(F)cc(Cl)cc4F)cc3)nc2=O)cn1 [E181]	≤ 10 nM
COc1ncc(Cc2c[nH]c(OCCc3ccc(Oc4ccc(Cl)c(C(F)(F)F)c4)cc3)nc2=O)cn1 [E24]	≤ 1 nM
Cc1ccc(Cc2c[nH]c(NCCc3ccc(Oc4ccc(Cl)c(C(F)(F)F)c4)cc3)nc2=O)cn1 [E210]	≤ 10 nM
COc1ncc(Cc2cn(C)c(SCc3ccc(Oc4ccc(Cl)c(C(F)(F)F)c4)cc3)nc2=O)cn1 [E75]	≤ 1 nM
O=c1nc(NCCc2ccc(Oc3ccc(F)cc3)cc2)[nH]cc1Cc1cncnc1 [E188]	≤ 10 nM
Cc1ncc(Cc2c[nH]c(NCCc3ccc(Oc4ccc(Cl)c(C(F)(F)F)c4)cc3)nc2=O)cn1 [E195]	≤ 10 nM
Cn1cc(Cc2c[nH]c(OCCc3ccc(Oc4cc(Cl)cc(C(F)(F)F)c4)cc3)nc2=O)cn1 [E162]	≤ 10 nM
Cn1cc(Cc2cncnc2)c(=O)nc1OCCc1cc(F)c(Oc2ccc(Cl)c(C(F)(F)F)c2)c(F)c1 [E30]	≤ 1 nM
